This collection of values is drawn from ChEMBL document CHEMBL5036317.

ASSAY_METHOD_TEXT: Haemolytic activity in human erythrocytes incubated for 2 hrs
Assay type: ADME, cell-based, Erythrocyte
REPORTED_PROPERTY: HC50 at 2 h

Past entries and their recorded results:
INSERT INTO measurements (chemical_string, reported_property, measured_value) VALUES
  ('O=C(/C(=C/c1nccs1)n1cnc2cc(Cl)ccc2c1=O)c1nccs1', 'HC50 at 2 h', '115 µg/mL'),
  ('Cc1ccc2c(/C=C(/C(=O)c3nccs3)n3cnc4cc(Cl)ccc4c3=O)c[nH]c2c1', 'HC50 at 2 h', '> 250 µg/mL'),
  ('O=C(/C(=C/c1ccccc1Cl)n1cnc2cc(Cl)ccc2c1=O)c1nccs1', 'HC50 at 2 h', '195 µg/mL'),
  ('O=C(/C(=C/c1ccc(F)cc1)n1cnc2cc(Cl)ccc2c1=O)c1nccs1', 'HC50 at 2 h', '> 250 µg/mL'),
  ('O=C(/C(=C/c1ccc([N+](=O)[O-])cc1)n1cnc2cc(Cl)ccc2c1=O)c1nccs1', 'HC50 at 2 h', '> 250 µg/mL');

Query: Return reported HC50 at 2 h; argument: O=C(/C(=C/c1c[nH]c2cc(Cl)ccc12)n1cnc2cc(Cl)ccc2c1=O)c1nccs1
Result: > 250 µg/mL

Query: Return reported HC50 at 2 h; argument: O=C(/C(=C/c1ccc(Cl)cc1Cl)n1cnc2cc(Cl)ccc2c1=O)c1nccs1
Result: 176 µg/mL

Query: Return reported HC50 at 2 h; argument: O=C(/C(=C/c1csc2ccccc12)n1cnc2cc(Cl)ccc2c1=O)c1nccs1
Result: > 250 µg/mL

* * *

Test system: Acinetobacter baumannii
ASSAY_METHOD_TEXT: Antibacterial activity against Acinetobacter baumanii assessed as inhibition of bacterial growth measured after 24 hrs by two-fold serial dilution method
Type: functional
Reported MIC values follow for various compounds
Please respond with the number in µg/mL and leave the unit unwritten.

Past entries and their recorded results:
INSERT INTO assay_data (chemical_string, measured_value) VALUES
  ('O=C(/C(=C/c1ccccc1Cl)n1cnc2cc(Cl)ccc2c1=O)c1nccs1', 512),
  ('O=C(/C(=C/c1ccc(C(F)(F)F)cc1)n1cnc2cc(F)ccc2c1=O)c1nccs1', 1),
  ('CN(C)/C=C(/C(=O)c1nccs1)n1cnc2cc(Cl)ccc2c1=O', 128),
  ('O=C(/C(=C/c1ccc([N+](=O)[O-])cc1)n1cnc2cc(Cl)ccc2c1=O)c1nccs1', 4);

We now examine a further compound.
Query: Return reported MIC; argument: Cc1ccc(/C=C(/C(=O)c2nccs2)n2cnc3cc(Cl)ccc3c2=O)cc1
Result: 1

* * *

ASSAY_METHOD_TEXT: Haemolytic activity in human erythrocytes incubated for 2 hrs
Type: ADME, cell-based, Erythrocyte
REPORTED_PROPERTY: HC50 at 2 h (µg/mL)
Please respond with the number in µg/mL and leave the unit unwritten.

Past entries and their recorded results:
INSERT INTO assay_data (chemical_string, reported_property, measured_value) VALUES
  ('O=C(/C(=C/c1ccc(F)cc1F)n1cnc2cc(Cl)ccc2c1=O)c1nccs1', 'HC50 at 2 h', 203),
  ('COc1ccc(/C=C(/C(=O)c2nccs2)n2cnc3cc(Cl)ccc3c2=O)cc1', 'HC50 at 2 h', 245),
  ('O=C(/C(=C/c1ccc2ccccc2c1)n1cnc2cc(Cl)ccc2c1=O)c1nccs1', 'HC50 at 2 h', 192),
  ('Cc1ccc(/C=C(/C(=O)c2nccs2)n2cnc3cc(Cl)ccc3c2=O)c(C)c1', 'HC50 at 2 h', 203),
  ('O=C(/C(=C/c1ccccc1)n1cnc2cc(Cl)ccc2c1=O)c1nccs1', 'HC50 at 2 h', 222);

Query: Return reported HC50 at 2 h; argument: O=C(/C(=C/c1cccs1)n1cnc2cc(Cl)ccc2c1=O)c1nccs1
Result: 211

Query: Return reported HC50 at 2 h; argument: CN(C)/C=C(/C(=O)c1nccs1)n1cnc2cc(Cl)ccc2c1=O
Result: 204

Query: Return reported HC50 at 2 h; argument: O=C(/C(=C/c1ccc(N2CCCCC2)cc1F)n1cnc2cc(Cl)ccc2c1=O)c1nccs1
Result: 181

Query: Return reported HC50 at 2 h; argument: O=C(/C(=C/c1ccc[nH]1)n1cnc2cc(Cl)ccc2c1=O)c1nccs1
Result: 203
